Source listed as patent US5622962A.

Here the recorded inhibition at 0.3 µM is given for each entry.
Target: Type I 5α-Reductase from Human Scalp (Homo sapiens)
Construct: Scalp punch biopsies from graft recipient sites were obtained from human hair transplant procedures; from tissue; host or cells: human scalp punch biopsies (hair transplant graft recipient sites), homogenate, 100,000×g pellet
Sequence (P18405 whole entry): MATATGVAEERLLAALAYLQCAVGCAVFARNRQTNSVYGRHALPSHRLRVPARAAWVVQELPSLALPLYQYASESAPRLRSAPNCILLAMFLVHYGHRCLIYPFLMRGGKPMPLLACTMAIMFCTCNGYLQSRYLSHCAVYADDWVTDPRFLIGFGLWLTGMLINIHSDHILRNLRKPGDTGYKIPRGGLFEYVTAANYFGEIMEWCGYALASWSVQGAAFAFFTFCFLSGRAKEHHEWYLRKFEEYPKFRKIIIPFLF
Experiment: Human Type I 5α-reductase assay (conversion of [3H]-testosterone to 5α-reduced metabolites)
Type: biochemical
Settings: pH 7.5, read-out: percent inhibition of Type I AR
quantity_name: inhibition at 0.3 µM (%)

# compound_smiles, unit_string, endpoint_value
measured = [
    ("CN1C(=O)CC[C@]2(C)c3ccc(C#Cc4ccccc4)cc3CC[C@@H]12", "%", 86),
    ("CN1C(=O)CC[C@]2(C)c3ccc(-c4ccc([N+](=O)[O-])cc4C(F)(F)F)cc3CC[C@@H]12", "%", 77),
    ("CN1C(=O)CC[C@]2(C)c3ccc(-c4ccc(C(F)(F)F)cc4F)cc3CC[C@@H]12", "%", 81),
    ("CN1C(=O)CC[C@]2(C)c3ccc(-c4ccc(F)cc4C(F)(F)F)cc3CC[C@@H]12", "%", 84),
    ("CN1C(=O)CC[C@]2(C)c3ccc(-c4cc5ccccc5c5ccccc45)cc3CC[C@@H]12", "%", 22),
    ("CN1C(=O)CC[C@]2(C)c3ccc(/C=C\\c4ccccc4)cc3CC[C@@H]12", "%", 93),
    ("CN1C(=O)CC[C@]2(C)c3ccc(/C=C/c4ccccc4)cc3CC[C@@H]12", "%", 85),
]
